ASSAY_INFO: Decitabine plasma pharmacokinetics
Type: in vivo, human
STUDY_CONDITIONS: human, intravenous, 20 mg/m^2/day, Mean AUCt (SD), Concurrent schedule: decitabine 20 mg/m^2/day (n = 6), Day 5, cycle 1
ASSAY_METRIC: AUC(0-t) (ng·h/mL)

>>> observed_value("Nc1ncn([C@H]2C[C@H](O)[C@@H](CO)O2)c(=O)n1 [decitabine, 5-aza-2’-deoxycytidine]")
166

----------
ASSAY_INFO: Vorinostat serum pharmacokinetics
Assay type: in vivo, human
STUDY_CONDITIONS: human, oral, 200 mg, Mean AUCinf (SD), Concurrent schedule, 200 mg bid days 1–21, Day 4 (n = 10)
ASSAY_METRIC: AUC(0-inf) (ng·h/mL)

>>> observed_value("O=C(CCCCCCC(=O)Nc1ccccc1)NO [vorinostat, suberoylanilide hydroxamic acid]")
930

----------
ASSAY_INFO: Vorinostat serum pharmacokinetics
Format: in vivo, human
STUDY_CONDITIONS: human, oral, 200 mg, Mean AUCinf (SD), Sequential schedule, 200 mg tid days 6–21 (n = 8), day 9 of cycle 1
ASSAY_METRIC: AUC(0-inf)

>>> observed_value("O=C(CCCCCCC(=O)Nc1ccccc1)NO [vorinostat, suberoylanilide hydroxamic acid]")
"910 ng·h/mL"

----------
ASSAY_INFO: Decitabine plasma pharmacokinetics
Format: in vivo, human
STUDY_CONDITIONS: human, intravenous, 20 mg/m^2/day, Mean AUCt (SD), Sequential schedule: decitabine 20 mg/m^2/day (n = 3), Day 1, cycle 1
ASSAY_METRIC: AUC(0-t) (µg·h/mL)

>>> observed_value("Nc1ncn([C@H]2C[C@H](O)[C@@H](CO)O2)c(=O)n1")
0.102

----------
ASSAY_INFO: Vorinostat serum pharmacokinetics
Type: in vivo, human
STUDY_CONDITIONS: human, oral, 100 mg, Mean t½ (SD), Concurrent schedule, 100 mg bid days 1–21, Day 15 (n = 1)
ASSAY_METRIC: half-life (min)

>>> observed_value("O=C(CCCCCCC(=O)Nc1ccccc1)NO [vorinostat, suberoylanilide hydroxamic acid]")
37.2

----------
ASSAY_INFO: Vorinostat serum pharmacokinetics
Type: in vivo, human
STUDY_CONDITIONS: human, oral, 100 mg, Mean AUCinf (SD), Concurrent schedule, 100 mg bid days 1–21, Day 4 (n = 3)
ASSAY_METRIC: AUC(0-inf) (ng·h/mL)

>>> observed_value("O=C(CCCCCCC(=O)Nc1ccccc1)NO [vorinostat, suberoylanilide hydroxamic acid]")
407

Where do these numbers come from? They come from paper PMC4688006.
